So I've got a bunch of variants here, and I need their self-cleavage kobs at 40 uM GlcN6P values.
B1: glmS ribozyme (parent)
chain: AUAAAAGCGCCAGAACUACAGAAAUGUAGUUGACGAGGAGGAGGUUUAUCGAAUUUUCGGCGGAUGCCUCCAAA

Variants of: B1
Assay: self-cleavage kobs at 40 uM GlcN6P; higher = faster cleavage; RNA array
Recorded Conditions: with glucosamine-6-phosphate
Variants at the floor of the assay were thinned out.

Request: Requested read-out: self-cleavage kobs at 40 uM GlcN6P. Entry: G40A U46G
Response: 4.29e-05 s⁻¹

Request: Same thing, different variant: U31A A42G G51A C70G
Response: < 1e-05 s⁻¹

Request: Same thing, different variant: C8G U31A A36G
Response: < 1e-05 s⁻¹

Request: Same thing, different variant: U45A U54G
Response: 0.00129 s⁻¹

Request: Same thing, different variant: C8G G51U
Response: < 1e-05 s⁻¹

Request: Same thing, different variant: A14C A15G C70U
Response: 6.72e-05 s⁻¹

Request: Same thing, different variant: C11U C34U
Response: < 1e-05 s⁻¹

Request: Same thing, different variant: A36G U54C
Response: < 1e-05 s⁻¹

Request: Same thing, different variant: A6U G41A A42U
Response: < 1e-05 s⁻¹

Request: Same thing, different variant: A12U G29C
Response: 0.00079 s⁻¹

Request: Same thing, different variant: U49C U65C
Response: < 1e-05 s⁻¹

Request: Same thing, different variant: A39U G43U
Response: 1.76e-05 s⁻¹

Request: Same thing, different variant: G29U A42G U56C G63A
Response: < 1e-05 s⁻¹

Request: Same thing, different variant: G29C U30C A33C A42G U55A U56A
Response: < 1e-05 s⁻¹

Request: Same thing, different variant: G29A A42G
Response: 0.00025 s⁻¹

Request: Same thing, different variant: U45A
Response: 0.00192 s⁻¹

Request: Same thing, different variant: A14U A36C
Response: < 1e-05 s⁻¹

Request: Same thing, different variant: A12G C34G G41C C50U U55A
Response: < 1e-05 s⁻¹

Request: Same thing, different variant: C11A G59C
Response: < 1e-05 s⁻¹

Request: Same thing, different variant: G7A G38U C58A
Response: < 1e-05 s⁻¹

Request: Same thing, different variant: A15C C16G
Response: 5.89e-05 s⁻¹

Request: Same thing, different variant: U30G G32A
Response: 5.91e-05 s⁻¹

Request: Same thing, different variant: A12C U45A C58G C67G
Response: < 1e-05 s⁻¹

Request: Same thing, different variant: A42C C61A
Response: < 1e-05 s⁻¹

Request: Same thing, different variant: G13A A14U U31C
Response: 7.34e-05 s⁻¹

Request: Same thing, different variant: C34U A48G C68A
Response: < 1e-05 s⁻¹

Request: Same thing, different variant: G9A A14U A39G
Response: < 1e-05 s⁻¹

Request: Same thing, different variant: A39C G43C U47C U49C A64U U65A
Response: < 1e-05 s⁻¹

Request: Same thing, different variant: C10G A52G
Response: < 1e-05 s⁻¹

Request: Same thing, different variant: C19A A53U
Response: 0.000466 s⁻¹

Request: Same thing, different variant: A14U G43A U49A C58U
Response: < 1e-05 s⁻¹

Request: Same thing, different variant: A15G G66A
Response: 0.000603 s⁻¹

Request: Same thing, different variant: C16U U56G
Response: 0.000579 s⁻¹

Request: Same thing, different variant: A15C G35U C50U
Response: < 1e-05 s⁻¹

Request: Same thing, different variant: A14G U56G
Response: 0.00201 s⁻¹

Request: Same thing, different variant: C11U A33C A52G C67A
Response: < 1e-05 s⁻¹

Request: Same thing, different variant: A12U G40A U45C
Response: 6.12e-05 s⁻¹

Request: Same thing, different variant: A39C A42U C67G
Response: < 1e-05 s⁻¹

Request: Same thing, different variant: C58G C61U
Response: < 1e-05 s⁻¹

Request: Same thing, different variant: C34G G40C
Response: < 1e-05 s⁻¹

Request: Same thing, different variant: C11A C16G U54A C68A
Response: 6.79e-05 s⁻¹

Request: Same thing, different variant: G38C C68A
Response: < 1e-05 s⁻¹

Request: Same thing, different variant: A15C U30G A39U
Response: 0.00162 s⁻¹

Request: Same thing, different variant: G32A C67G
Response: < 1e-05 s⁻¹

Request: Same thing, different variant: A14C G32A A42U U54G
Response: < 1e-05 s⁻¹

Request: Same thing, different variant: G7U C8A
Response: < 1e-05 s⁻¹
